MEASURED ON: Gal(b1-4)GlcNAc(b1-3)Gal(b1-4)GlcNAc(b1-2)[Gal(b1-4)GlcNAc(b1-3)Gal(b1-4)GlcNAc(b1-6)]Man(a1-6)[Gal(b1-4)GlcNAc(b1-3)Gal(b1-4)GlcNAc(b1-2)Man(a1-3)]Man(b1-4)GlcNAc(b1-4)GlcNAc
ASSAY NAME: glycan array binding signal (z-score within array); higher = stronger binding
ASSAY CONTEXT: glycan notation: IUPAC condensed, linker removed
About 410 targets per protein were measured; listed, in parts, are those with the strongest signals and a random draw of the rest.
MEASURED METRIC: glycan array binding signal (z-score)

binder="SynCAM (Mus musculus) (protein) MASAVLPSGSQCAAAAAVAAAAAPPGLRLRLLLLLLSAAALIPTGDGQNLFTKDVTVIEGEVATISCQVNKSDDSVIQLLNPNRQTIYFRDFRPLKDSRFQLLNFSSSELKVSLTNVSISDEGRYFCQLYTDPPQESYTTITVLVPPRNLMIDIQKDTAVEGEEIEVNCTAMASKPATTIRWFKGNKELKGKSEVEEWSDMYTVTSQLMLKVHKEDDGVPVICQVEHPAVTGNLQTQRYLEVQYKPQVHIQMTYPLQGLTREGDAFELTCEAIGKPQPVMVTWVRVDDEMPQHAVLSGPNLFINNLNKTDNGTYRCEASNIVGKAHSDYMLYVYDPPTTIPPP" reading=0.285
binder="DrGal9 (Danio rerio) (protein) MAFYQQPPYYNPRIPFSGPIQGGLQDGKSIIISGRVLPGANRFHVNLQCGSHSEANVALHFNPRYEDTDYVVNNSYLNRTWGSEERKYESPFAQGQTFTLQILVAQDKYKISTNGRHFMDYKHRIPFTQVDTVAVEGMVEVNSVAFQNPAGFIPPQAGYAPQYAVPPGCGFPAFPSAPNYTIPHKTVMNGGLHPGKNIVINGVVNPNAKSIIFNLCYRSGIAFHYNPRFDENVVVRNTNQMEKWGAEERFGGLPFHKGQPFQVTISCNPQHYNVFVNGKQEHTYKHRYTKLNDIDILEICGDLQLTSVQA" reading=0.373
binder="Arath Fbox (Arabidopsis thaliana), NP_178341.1 (protein) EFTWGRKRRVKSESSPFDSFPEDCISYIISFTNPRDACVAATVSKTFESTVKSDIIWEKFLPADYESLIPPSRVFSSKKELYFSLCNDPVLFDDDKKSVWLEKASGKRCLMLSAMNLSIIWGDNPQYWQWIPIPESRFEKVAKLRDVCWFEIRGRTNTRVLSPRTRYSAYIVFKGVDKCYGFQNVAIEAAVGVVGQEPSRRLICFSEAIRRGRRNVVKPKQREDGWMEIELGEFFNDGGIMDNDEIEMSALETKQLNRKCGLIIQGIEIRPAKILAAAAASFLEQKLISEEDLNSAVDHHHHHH" reading=2.73
binder="NPA (Narcissus pseudonarcissus), C0HM45 (protein) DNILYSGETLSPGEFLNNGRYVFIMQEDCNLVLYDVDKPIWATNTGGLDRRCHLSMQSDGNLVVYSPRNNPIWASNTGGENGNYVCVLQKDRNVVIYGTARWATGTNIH" reading=-0.104
binder="Mermaid3 (Stilbonema majum) (protein) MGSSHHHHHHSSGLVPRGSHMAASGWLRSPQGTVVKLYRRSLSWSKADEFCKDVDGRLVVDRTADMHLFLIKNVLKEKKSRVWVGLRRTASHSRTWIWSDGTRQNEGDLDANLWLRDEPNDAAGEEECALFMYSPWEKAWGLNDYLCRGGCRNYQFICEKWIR" reading=3.51
